Assign growth inhibition to each entry below.
assay: NCI Yeast Anticancer Drug Screen. Data for the mlh1 rad18 strain (AID 175); details: S. cerevisiae mlh1 rad18 strain growth inhibition; at 50.0 µM; hits give high values
This is part of a sample that, as a whole, favours compounds with a hit. Of some 79,000 tested, about 15% had one in any assay.
Express the result in % but write the number alone.

Exercise: Please look up its growth inhibition: Nc1n[nH]c(=S)s1
Solution: 3.55

Exercise: Please look up its growth inhibition: NCCCNC/C=C/CNCCCN
Solution: -2.45

Exercise: Please look up its growth inhibition: CCc1c(Cl)nc(N)nc1Nc1ccc(C)cc1
Solution: -6.55

Exercise: Please look up its growth inhibition: CCCCCCCCCCCCOP(=O)(O)OP(=O)(O)OCC1OC(n2cc(C)c(=O)[nH]c2=O)CC1O (stereo unspecified)
Solution: 7.55

Exercise: Please look up its growth inhibition: C/C(=N\NC(=O)/C(C#N)=C\c1ccc(N(CCC#N)CCC#N)cc1)c1ccccc1
Solution: -1.95

Exercise: Please look up its growth inhibition: CC1(C)N=C(/C(Cl)=[N+](/[O-])C(=O)c2ccc(Cl)cc2)C(C)(C)N1O
Solution: -8.4

###

assay: NCI Yeast Anticancer Drug Screen. Data for the cln2 rad14 strain (AID 165);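 also: 0% = growth equal to vehicle treated cultures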; details: S. cerevisiae cln2 rad14 strain, at 50.0 µM, hits give high values
This is part of a sample that, as a whole, favours compounds with a hit. Of some 79,000 tested, about 15% had one in any assay. Active and inactive are the calls of the source. Rule as the data show it: active = growth inhibition above about 70%; inactive = the rest.
Assign growth inhibition to each entry below.

Exercise: Please look up its growth inhibition: C=C(c1nc2ccc(Cl)cc2[nH]c1=O)C(O)c1ccc(C(O)C(=O)c2nc3ccc(Cl)cc3[nH]c2=O)cc1 (centres undefined)
Solution: -68.8% (inactive)

Exercise: Please look up its growth inhibition: O=c1c2ccccc2c(Cc2ccccc2)nn1C1CCCCCC1
Solution: -29.5% (inactive)

Exercise: Please look up its growth inhibition: C=CC/C=C/CCC
Solution: -21.8% (inactive)

Exercise: Please look up its growth inhibition: COc1ccc(NC(=S)NNC(=O)c2nsc3ccccc23)cc1
Solution: 7.35% (inactive)

###

test: NCI Yeast Anticancer Drug Screen. Data for the rad50 strain (AID 155);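 also: 0% = growth of vehicle-only cultures of the same strain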; settings: S. cerevisiae rad50 strain growth inhibition; at 50.0 µM; hits give high values
About 79,000 compounds went through this panel and 15% of them were active in at least one assay; those are over-represented in the sample as a whole.
Everything with growth inhibition lower than 10% is rule not met; everything else, including exactly 10%, is rule met.

Exercise: Threshold query (growth inhibition >= 10%) on O=C1ON=C2C3CC4CC12CC1(C3)C(=O)ON=C41
Solution: rule not met

Exercise: Threshold query (growth inhibition >= 10%) on CC(=O)OCCC(C)Nc1ccnc2cc(Cl)ccc12 (centres undefined)
Solution: rule not met

Exercise: Threshold query (growth inhibition >= 10%) on CNC(C#N)c1ccc(OC)cc1 (centres undefined)
Solution: rule not met

Exercise: Threshold query (growth inhibition >= 10%) on Cc1cc(Cc2cc(C)c(NC(=O)C(=O)C3CCC4=C(SC5C=CC=CC5N4)C3=O)c(C(C)C)c2)cc(C(C)C)c1NC(=O)C(=O)C1CCC2=C(SC3C=CC=CC3N2)C1=O (centres undefined)
Solution: rule not met

Exercise: Threshold query (growth inhibition >= 10%) on COc1ccccc1NC(=S)N/C=C(\C#N)c1nc2ccccc2s1
Solution: rule not met

Exercise: Threshold query (growth inhibition >= 10%) on COc1cc(C(=O)NN(C)C)cc(OC)c1OC
Solution: rule met

Exercise: Threshold query (growth inhibition >= 10%) on O=C(O)CCC(=O)CC1CCCCC1
Solution: rule met

Exercise: Threshold query (growth inhibition >= 10%) on Cc1cc(C)c2ccc(NN=O)nc2n1
Solution: rule met

Exercise: Threshold query (growth inhibition >= 10%) on NCCNCCCCCCCCCCCCOS(=O)(=O)O
Solution: rule not met

Exercise: Threshold query (growth inhibition >= 10%) on CC(=O)c1ccc2c(Br)ccc3c2c1CC3
Solution: rule met

Exercise: Threshold query (growth inhibition >= 10%) on CCOc1cc(/C=C2\N=C(c3ccccc3)OC2=O)ccc1O
Solution: rule not met

Exercise: Threshold query (growth inhibition >= 10%) on CCN1C(=O)/C(=C/c2ccc(OCC(=O)O)cc2)SC1=S
Solution: rule not met

Exercise: Threshold query (growth inhibition >= 10%) on SC1c2ccccc2-c2ccccc21
Solution: rule met

Exercise: Threshold query (growth inhibition >= 10%) on CNC(=O)N(C)COC
Solution: rule not met

Exercise: Threshold query (growth inhibition >= 10%) on CCOC(=O)C(C#N)=C1CC(C)OC(C)C1 (centres undefined)
Solution: rule met

Exercise: Threshold query (growth inhibition >= 10%) on [O-]c1on[n+]2c1c(Nc1ccc(Cl)cc1)nc1ccccc12
Solution: rule not met

Exercise: Threshold query (growth inhibition >= 10%) on O=C(O)CS(=O)(=O)Cc1ccc(Cl)cc1Cl
Solution: rule met

Exercise: Threshold query (growth inhibition >= 10%) on CCOC(=O)C1C(C)NC(C)C(C(=O)OCC)C1C (centres undefined)
Solution: rule met

###

Assign growth inhibition to each entry below.
assay: NCI Yeast Anticancer Drug Screen. Data for the rad50 strain (AID 155);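 also: 0% = growth of vehicle-only cultures of the same strain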; settings: S. cerevisiae rad50 strain growth inhibition; at 50.0 µM; hits give high values
This is part of a sample that, as a whole, favours compounds with a hit. Of some 79,000 tested, about 15% had one in any assay.
Express the result in % but write the number alone.

Exercise: Please look up its growth inhibition: C=C(C)CS(=O)(=O)O
Solution: -0.15

Exercise: Please look up its growth inhibition: O=C(O)C(Oc1ccccc1)Oc1ccccc1
Solution: -24.7

Exercise: Please look up its growth inhibition: C=C(C)C#CC(O)(C(=O)OC1CCN(C)CC1)C(C)C (stereo not given)
Solution: -7.95

Exercise: Please look up its growth inhibition: CC(Nc1ccc(Br)cc1[N+](=O)[O-])C(=O)O (stereo not given)
Solution: 22.1

Exercise: Please look up its growth inhibition: CC(=O)OC1C(C2COCO2)OCOC1C1COCO1 (stereo not given)
Solution: -3.3

Exercise: Please look up its growth inhibition: O=C(O)C(CBr)c1ccccc1 (stereo not given)
Solution: 6.7

Exercise: Please look up its growth inhibition: CC1(n2[nH]c(=O)n(-c3ccccc3)c2=O)Cn2c(=O)n(-c3ccccc3)c(=O)n2-c2ccccc21 (stereo not given)
Solution: -49.2

Exercise: Please look up its growth inhibition: COC(=O)c1ccccc1N(C(=O)c1ccccc1)c1ccccc1C
Solution: -16.1

Exercise: Please look up its growth inhibition: N#Cc1cc2c3ccccc3ncc2c2ccccc12
Solution: 0.95

Exercise: Please look up its growth inhibition: Nc1ccc(C(=O)CC(N)C(=O)O)cc1O (stereo not given)
Solution: -9.7

###

experiment: NCI Yeast Anticancer Drug Screen. Data for the mec2-1 strain (AID 157); settings: S. cerevisiae mec2-1 strain, at 50.0 µM, hits give high values
Compounds without any hit were thinned out: in the full panel of roughly 79,000, 15% have a hit.
measurementLabel: growth inhibition (%)
Express the result in % but write the number alone.

Exercise: Please look up its growth inhibition: Cc1cccc(NC(=O)COc2c(C)cc(Cl)cc2Cl)c1
Solution: 15.5

Exercise: Please look up its growth inhibition: Clc1ccc2nsnc2c1
Solution: -12.8

Exercise: Please look up its growth inhibition: CC(C)(C)C1COC(c2ccccc2)(c2ccccc2)C1 (stereo not given)
Solution: -1.55

Exercise: Please look up its growth inhibition: Cc1ccc(S(=O)(=O)OC(c2ccc(C(OS(=O)(=O)c3ccc(C)cc3)(C(F)(F)F)C(F)(F)F)cc2)(C(F)(F)F)C(F)(F)F)cc1
Solution: 6.65

Exercise: Please look up its growth inhibition: Cc1ccc(S(=O)(=O)NN(C)C(=O)c2ccccc2)cc1
Solution: -0.75

Exercise: Please look up its growth inhibition: CCCCCCCC(=O)N1C2CN3C4=C(C(=O)C(N)=C(C)C4=O)C(COC(N)=O)C3(OC)C21 (stereo not given)
Solution: 13.1

Exercise: Please look up its growth inhibition: O=P1(O)c2ccccc2Oc2ccccc21
Solution: -2.2

Exercise: Please look up its growth inhibition: O=C(Nc1ccccn1)OCCCl
Solution: 0.6

Exercise: Please look up its growth inhibition: Cc1ccccc1N=Nc1c(-c2ccccc2)nn(C(=O)CC(=O)Nc2cccc(Cl)c2)c1-c1ccccc1
Solution: 21.6

Exercise: Please look up its growth inhibition: O=CC(NC(=O)OCc1ccccc1)C(O)C(O)C(O)CO (stereo not given)
Solution: 2.7

Exercise: Please look up its growth inhibition: O=C(O)c1cccc(Cl)c1-c1c(Cl)cccc1C(=O)O
Solution: -0.95

Exercise: Please look up its growth inhibition: COc1ccc(C(=O)N2CCCCC2)cc1
Solution: -15.8

Exercise: Please look up its growth inhibition: COc1ccc(/C=C/C2=CC(=O)CC(c3ccc(OC)c(OC)c3)C2)cc1OC (stereo not given)
Solution: 5.35

Exercise: Please look up its growth inhibition: CO[C@@]12C[C@@H](C)[C@]34O[C@H]3C[C@]3(C)O[C@]43CC1=C(C)C(=O)O2
Solution: 1.2

Exercise: Please look up its growth inhibition: COc1ccc(C(=O)CC(=O)C2CCCCC2=O)cc1 (stereo not given)
Solution: -12.3

Exercise: Please look up its growth inhibition: Cc1cc(=O)oc2nc(-c3ccccc3)[nH]c(=O)c12
Solution: -10.2

Exercise: Please look up its growth inhibition: CN1N=Nc2ccccc2C1(O)c1ccccc1 (stereo not given)
Solution: -3.05

Exercise: Please look up its growth inhibition: CC1CN(C(=O)Cn2cnc([N+](=O)[O-])n2)CC(C)O1 (stereo not given)
Solution: 14.2

Exercise: Please look up its growth inhibition: C[n+]1cccc(C(=O)O)c1
Solution: 2.75

Exercise: Please look up its growth inhibition: C/C(=N\N)c1ccc(-c2ccccc2)cc1
Solution: 8.9

Exercise: Please look up its growth inhibition: COC(=O)/C=C(\C)CC(O)/C=C(\C)CCC=C(C)C (stereo not given)
Solution: 49.1

Exercise: Please look up its growth inhibition: c1ccc(CNCCCNCCCCNCCCNCc2ccccc2)cc1
Solution: -5.5

Exercise: Please look up its growth inhibition: O=[N+]([O-])c1nccn1CCCNc1c2ccccc2nc2ccccc12
Solution: 7.95

Exercise: Please look up its growth inhibition: CC(C)(C)SC1C(O)C(CO)OC1n1ccc(Nc2ccccc2)nc1=O (stereo not given)
Solution: 10.8

Exercise: Please look up its growth inhibition: Cc1cc(O)cc2oc(=O)ccc12
Solution: -23.4

Exercise: Please look up its growth inhibition: COc1cc2c(c(OC)c1OC)CCCC2=O
Solution: -10.4

Exercise: Please look up its growth inhibition: CC(CO)NCc1ccccc1 (stereo not given)
Solution: -14.9

Exercise: Please look up its growth inhibition: CCS(=O)(=O)CCNC(=O)NS(=O)(=O)c1ccc(C)cc1
Solution: -7.85

Exercise: Please look up its growth inhibition: O=C(O)CCCCCCCCC(=O)c1cc(O)ccc1O
Solution: 42.1

Exercise: Please look up its growth inhibition: O=C(Nc1ccc(Cl)c(Cl)c1)C(=O)C(C(=O)c1ccccc1-c1ccccc1)C1OC(=O)c2ccccc21 (stereo not given)
Solution: -0.45

Exercise: Please look up its growth inhibition: CCc1sc(N)nc1-c1ccccc1
Solution: -23.9

Exercise: Please look up its growth inhibition: CN1CCCCC1CCO (stereo not given)
Solution: 6.7

Exercise: Please look up its growth inhibition: OCC1C=Cc2ccccc21 (stereo not given)
Solution: 0.65

Exercise: Please look up its growth inhibition: O=C(Nc1nc(=S)c2c(ncn2CCO)[nH]1)c1ccccc1
Solution: -14

Exercise: Please look up its growth inhibition: CCOC(=O)c1cnc(N(C)C)nc1SC(=N)N
Solution: -0.7

Exercise: Please look up its growth inhibition: Cc1cc(C)c(NC(=O)C(Br)C(Br)c2ccccc2)c(C)c1 (stereo not given)
Solution: -5.6

Exercise: Please look up its growth inhibition: CC1=C[C@H](C[C@]2(C)c3c(c4c(C)cccc4oc3=O)O[C@@H]2C)OC1=O
Solution: 24.4

Exercise: Please look up its growth inhibition: Oc1ccc2ccccc2c1-c1c(OC(c2ccccc2)c2ccccc2)ccc2ccccc12
Solution: -19.2

Exercise: Please look up its growth inhibition: CC(=O)c1cccc(NC(=O)Oc2ccc(Cl)cc2Cl)c1
Solution: 17.9

Exercise: Please look up its growth inhibition: CCOC(=O)C(C)(C)C(O)C(C)C (stereo not given)
Solution: -18.8
